Give pIC50 for every item shown.
Target: SARS-CoV-2 main protease (M^pro) (Severe acute respiratory syndrome coronavirus 2)
Assay: Rapid-Fire MS Biochemical Assay measuring Mpro activity (5 nM Mpro)
Settings: Table 1B, Mpro inhibition, 5 μM substrate peptide, 120 min, read-out: Rapid-Fire Assay IC50
pIC50: −log10 of the molar value.

IN: Could you share which pIC50 value was measured for N#C[C@H]1CN(c2cccc(F)n2)C(=O)N1c1cncc2ccccc12 (single isomer, unassigned) [Compound 61a] ?
OUT: 6.70 to 7.70

IN: # lookup: pIC50 of N#C[C@@H]1CN(c2ncc(C(F)(F)F)[nH]2)C(=O)N1c1cncc2ccccc12 (single isomer, unassigned) [Compound 68b]
OUT: < 6.00

IN: Look at this compound and give its reported pIC50. N#C[C@@H]1CN(c2ccc(F)c(F)c2)C(=O)N1c1cncc2ccccc12 (single isomer, unassigned) [Compound 72b]
OUT: 6.00 to 6.70

IN: Could you tell me which pIC50 is on file for N#C[C@@H]1CN(C2CN(S(=O)(=O)C(F)(F)F)C2)C(=O)N1c1cncc2ccccc12 (single isomer, unassigned) [Compound 129b] ?
OUT: < 6.00

IN: Give its pIC50 value. Item: N#C[C@@H]1CN(c2ccc(C(F)(F)F)nn2)C(=O)N1c1cncc2ccccc12 (single isomer, unassigned) [Compound 81b]
OUT: < 6.00

IN: # pIC50 lookup, item N#CC1CN(c2cccc(Cl)c2)C(=O)N1c1cncc2ccccc12 (racemic)
OUT: > 7.70

IN: Would you kindly share the measured pIC50 for N#CC1CN(c2cccc(OC(F)F)c2)C(=O)N1c1cncc2ccccc12 (racemic) ?
OUT: 6.00 to 6.70

The reported measurements were obtained from patent US20250092016A1.
